Biological target: aurora A kinase (AURKA) (Homo sapiens)
Construct: purchased BPS Bioscience (assay run externally by the vendor)
Sequence (O14965 whole entry): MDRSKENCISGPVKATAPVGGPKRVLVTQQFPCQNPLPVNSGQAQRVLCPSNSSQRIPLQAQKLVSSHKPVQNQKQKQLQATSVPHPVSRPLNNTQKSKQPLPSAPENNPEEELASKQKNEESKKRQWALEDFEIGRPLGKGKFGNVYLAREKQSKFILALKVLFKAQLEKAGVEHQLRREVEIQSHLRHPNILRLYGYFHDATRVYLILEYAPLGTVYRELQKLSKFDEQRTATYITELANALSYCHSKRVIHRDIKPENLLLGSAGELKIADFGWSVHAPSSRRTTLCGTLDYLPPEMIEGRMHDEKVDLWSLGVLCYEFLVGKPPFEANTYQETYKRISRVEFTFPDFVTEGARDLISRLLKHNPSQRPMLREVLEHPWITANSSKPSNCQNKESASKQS
Experiment: ADP-Glo kinase assay, Aurora A
Assay type: biochemical
Details: Log[nM] 1.5; Set2
READOUT NAME: Aurora A % Activity Set2 (%)

Nc1nc(Nc2cccc(Br)c2)c2cc[nH]c2n1: 108
c1ccc(Oc2ccc(Nc3ncnc4[nH]ccc34)cc2)cc1: 99
Clc1ccc(Nc2ncnc3[nH]ccc23)cc1Br: 103
COc1ccc(Nc2ncnc3[nH]ccc23)cc1: 100
Fc1cc(Nc2ncnc3[nH]ccc23)ccc1Cl: 94
Cc1cccc(Nc2ncnc3[nH]ccc23)c1: 100
Clc1cccc(Nc2ncnc3[nH]ccc23)c1: 108
CN[C@@H]1C[C@H]2O[C@@](C)([C@@H]1OC)n1c3ccccc3c3c4c(c5c6ccccc6n2c5c31)C(=O)NC4 [Staurosporine, staurosporine, reference compound]: 69
Cc1ccc(Nc2ncnc3[nH]ccc23)cc1: 103
Cc1ccccc1Nc1ncnc2[nH]ccc12: 105
FC(F)(F)c1cccc(Nc2ncnc3[nH]ccc23)c1: 113
c1ccc(Nc2ncnc3[nH]ccc23)cc1: 98
Brc1ccc(Nc2ncnc3[nH]ccc23)cc1: 95
Brc1cccc(Nc2ncnc3[nH]ccc23)c1: 96
Clc1ccccc1Nc1ncnc2[nH]ccc12: 96
c1ccc(Cc2ccc(Nc3ncnc4[nH]ccc34)cc2)cc1: 96
Clc1ccc(Nc2ncnc3[nH]ccc23)cc1Cl: 101
Clc1ccc(Nc2ncnc3[nH]ccc23)cc1: 108
